# Tested on: VEGF secretion by Hep3B cells
# Test Name: Measurement of the secretion of VEGF by Hep3B hepatocytes (ELISA on supernatant)
# Assay type: cell-based
# Settings: Homo sapiens, 18 hours incubation under normoxia, VEGF in supernatant, 50% of the maximum response of this same compound
# Source text: 2. Measurement of the Secretion of VEGF and EPO by Hep3B Hepatocytes 2.1. Object HIF is a transcription factor involved in the adaptation of cells to hypoxia. Since the genes activated by HIF are involved in the adaptive response of cells to hypoxia and of tissues to ischaemia, the object is to identify and characterize compounds that stabilize HIF1-alpha in cells in order to amplify or mimic its beneficial effect. […]
pEC50: −log10 of the molar value. Counter-ions that a name gives are not always drawn.
# label = Satisfied if pEC50 >= 6 else Not satisfied

Compound | Class
CCN(c1ccccc1)S(=O)(=O)c1ccc(-n2[nH]cc(Cc3ccccc3)c2=O)nc1 | Satisfied
CCN(c1ccccc1)S(=O)(=O)c1ccc(-n2[nH]c(CC(C)C)c(Cc3ccccc3)c2=O)nc1 | Satisfied
CCN(c1ccccc1)S(=O)(=O)c1ccc(-n2[nH]c(C)c(Cc3cc(OC)cc(OC)c3)c2=O)nc1 | Not satisfied
CCCc1[nH]n(-c2ccc(S(=O)(=O)N(CC)c3ccccc3)cn2)c(=O)c1Cc1ccccc1 | Satisfied
CCN(c1ccccc1)S(=O)(=O)c1ccc(-n2[nH]c(C)c(Cc3ncccc3OC)c2=O)nc1 | Not satisfied
CCN(c1ccccc1)S(=O)(=O)c1ccc(-n2[nH]c(C)c(CCCc3ccccc3)c2=O)nc1 | Satisfied
CCN(c1ccccc1)S(=O)(=O)c1ccc(-n2[nH]c(C)c(Cc3cccnc3)c2=O)nc1 | Not satisfied
CCN(c1ccccc1)S(=O)(=O)c1ccc(-n2[nH]c(C)c(Cc3cccc(N(C)C)c3)c2=O)nc1 | Not satisfied
CCN(c1ccccc1)S(=O)(=O)c1ccc(-n2[nH]c(C)c(CCc3ccccn3)c2=O)nc1 | Not satisfied
CCN(c1ccccc1)S(=O)(=O)c1ccc(-n2[nH]c(C)c(Cc3cccc(OCCN(C)C)c3)c2=O)nc1 [Compound 56, hydrochloride] | Not satisfied
CCN(c1ccccc1)S(=O)(=O)c1ccc(-n2[nH]c(C)c(Cc3ccc(O)cc3)c2=O)nc1 | Not satisfied
CCN(c1ccccc1)S(=O)(=O)c1ccc(-n2[nH]c(C)c(Cc3ccc(OC)cc3)c2=O)nc1 | Satisfied
CCN(c1ccccc1)S(=O)(=O)c1ccc(-n2[nH]c(C)c(Cc3cc(OC)ccc3OC)c2=O)nc1 | Not satisfied

* * *

# melting point per entry
Where a name gives a salt, the structure may show the parent alone.

Compound | melting point, °C
CN1CCC(N(C)S(=O)(=O)c2ccc(-n3[nH]cc(Cc4ccccc4)c3=O)nc2)C1 (stereo not shown) (as salt: HCl) | 130
CCN(c1ccccc1)S(=O)(=O)c1ccc(-n2[nH]c(C)c(Cc3ccc(OCCOC)cc3)c2=O)nc1 | 176
CCN(c1ccccc1)S(=O)(=O)c1ccc(-n2[nH]c(C)c(Cc3ccc(S(C)(=O)=O)cc3)c2=O)nc1 | 224
CCN(c1ccccc1)S(=O)(=O)c1ccc(-n2[nH]c(C)c(Cc3cccc(N(C)C)c3)c2=O)nc1 | 122
COCCOc1cccc(Cc2c(C)[nH]n(-c3ccccn3)c2=O)c1 | 68
Cc1[nH]n(-c2ccccn2)c(=O)c1Cc1ccncc1 [Compound 175] | 162
COC(=O)CN(C1CCCC1)S(=O)(=O)c1ccc(-n2[nH]cc(Cc3cccnc3)c2=O)nc1 (as salt: HCl) | 110
